Test system: K562 (chronic myelogenous leukemia)
Experiment: MTT cell proliferation assay, K562
Format: cell-based
Details: Homo sapiens, K562, 72 h of exposition, read-out: Anti-proliferative activity IC50, K562
RESULT_TYPE: IC50 (µM)
Report as a plain number; the unit µM is understood.

Study these solved cases before continuing.
- Cc1cn(-c2cc(NC(=O)c3cccc(C(=O)N4CCN(C(=O)c5ccccc5F)CC4)c3)cc(C(F)(F)F)c2)cn1 [Compound 14]: 7.71
- CS(=O)(=O)CCNCc1ccc(-c2ccc3ncnc(Nc4ccc(OCc5cccc(F)c5)c(Cl)c4)c3c2)o1 [Lapatinib, reference compound]: 9.62
- Cc1cn(-c2cc(NC(=O)c3ccc(C(=O)N4CCN(C(=O)c5cccc(F)c5)CC4)cc3)cc(C(F)(F)F)c2)cn1 [Compound 27]: 22.2
- O=C(Nc1cccc(C(F)(F)F)c1)c1cccc(C(=O)N2CCN(C(=O)c3ccccc3F)CC2)c1 [Compound 8]: 18.3

Continue with the compound presented below.
Return reported IC50. Input compound: CNC(=O)c1cc(Oc2ccc(NC(=O)Nc3ccc(Cl)c(C(F)(F)F)c3)cc2)ccn1 [Sorafenib, reference compound]
2.44
